TARGET DESC: beta2-microglobulin, native monomer (UniProt P61769)
Sequence (P61769 21-119): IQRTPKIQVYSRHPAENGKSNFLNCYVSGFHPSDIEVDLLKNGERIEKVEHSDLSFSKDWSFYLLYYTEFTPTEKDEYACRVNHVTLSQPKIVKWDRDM
EXPERIMENTAL PROTOCOL: SPR
REPORTED CONDITIONS: at 0.5 uM RNA; 317 nM at 0.1 uM RNA; TMGA buffer pH 3.6
pKd: −log10 of the molar value.
ENDPOINT LABEL: pKd

SEQUENCE DATA: GGCNUGACANGGCAGGAUAGCCGGNCNANGCGANCNNUNGGNCCNCGANACCCGACNGUGG [N4]
TEST VALUE: 6.98

Data provenance: patent US20060234926
